Data origin: ChEMBL document CHEMBL4483862

test system: Plasmodium berghei; assay: Luciferase/luciferin-expressing antifolate-resistant parasites were used to infect a culture of HepG2 cells that were pre-incubated with compounds. Infected hepatocytes emit light due to the luciferase reaction. Assay results are presented as the percent inhibition of light emission compared to control. […]; type: functional; settings: sporozoite, HEPG2TOX_HILL_SLOPE 1.93, HEPG2TOX_R_SQUARED 0.878, PBLUC_HILL_SLOPE 2.27, PBLUC_R_SQUARED 0.668, read-out: LUCIFERASE INFECTION ASSAY - IC50
endpoint: pIC50
Note: pIC50 values are expressed as the negative base-10 logarithm of concentration in M.

Q: I'd like to know its pIC50. The compound in question is COc1ccc(OC)c(CCNc2nc3cnc(-c4ccc(Cl)cc4)cc3n2C)c1
Ans: 5.85

----------
test system: Plasmodium berghei; test: Luciferase/luciferin-expressing antifolate-resistant parasites were used to infect a culture of HepG2 cells that were pre-incubated with compounds. Infected hepatocytes emit light due to the luciferase reaction. Assay results are presented as the percent inhibition of light emission compared to control. […]; type: functional; conditions: sporozoite, HEPG2TOX_HILL_SLOPE 4.99, HEPG2TOX_R_SQUARED 0.387, PBLUC_HILL_SLOPE 14.8, PBLUC_R_SQUARED 0.11, read-out: LUCIFERASE INFECTION ASSAY - IC50
endpoint: IC50

Q: # query: IC50 of entry CC(=O)c1sc(SCCS(=O)(=O)c2ccc(Cl)cc2)c2c1CCCC2=O
Ans: > 7.69 µM

----------
test system: Plasmodium berghei; assay: Luciferase/luciferin-expressing antifolate-resistant parasites were used to infect a culture of HepG2 cells that were pre-incubated with compounds. Infected hepatocytes emit light due to the luciferase reaction. Assay results are presented as the percent inhibition of light emission compared to control. […]; assay type: functional; settings: sporozoite, HEPG2TOX_HILL_SLOPE 0.704, HEPG2TOX_R_SQUARED 0.958, PBLUC_HILL_SLOPE 1.6, PBLUC_R_SQUARED 0.488, read-out: LUCIFERASE INFECTION ASSAY - IC50
endpoint: IC50 (nM)
Form entry: value (nM) — number only.

Q: What does the data say about its IC50? Entry: CC1(C(=O)Nc2ccncc2)CCN1Cc1ccc2ccccc2c1 (stereo unspecified)
Ans: 1800

----------
system: Plasmodium berghei; experiment: Luciferase/luciferin-expressing antifolate-resistant parasites were used to infect a culture of HepG2 cells that were pre-incubated with compounds. Infected hepatocytes emit light due to the luciferase reaction. Assay results are presented as the percent inhibition of light emission compared to control. […]; assay type: functional; conditions: sporozoite, read-out: LUCIFERASE INFECTION ASSAY - IC90
endpoint: IC90

Use these answered entries as a reference point.
>>> result("O=c1c2cc(Cl)cc(Cl)c2nc(-c2cccc(C(F)(F)F)c2)n1O")
"> 8.8 µM"
>>> result("CCOC(=O)c1sc2ncn(-n3c(C)ccc3C)c(=O)c2c1C")
"7.62 µM"
>>> result("O=C(Nc1ccccc1)N1CCc2nc(NCc3cccc(Oc4ccccc4)c3)ncc2C1")
"3.15 µM"
>>> result("Cc1nn(Cc2nnc(SCc3cccc(C(F)(F)F)c3)o2)c(C)c1Br")
"> 7.38 µM"
>>> result("Cc1c(C)c(C)c(CSC2=NCCCN2C2CCCCC2)c(C)c1C")
"> 8.35 µM"
>>> result("Cc1ccc(C2Nc3ccccc3C(=O)N2C(C)c2ccccc2)o1 (stereo unspecified)")
"> 10 µM"

Q: Report IC90 for N#Cc1ccc(NC(=O)c2cnn(Cc3ccccc3Cl)c2)cc1 please.
Ans: > 10 µM

Q: What do you get for CCOC(=O)c1cc(NC(=O)Nc2ccc(Cl)c(Cl)c2)ccc1Oc1cncc(Cl)c1 ?
Ans: 4.18 µM

----------
tested on: Plasmodium berghei; assay: Luciferase/luciferin-expressing antifolate-resistant parasites were used to infect a culture of HepG2 cells that were pre-incubated with compounds. Infected hepatocytes emit light due to the luciferase reaction. Assay results are presented as the percent inhibition of light emission compared to control. […]; assay type: functional; settings: sporozoite, read-out: LUCIFERASE INFECTION ASSAY - IC90
endpoint: IC90

Would you please look over these solved cases?
>>> result("O=S(=O)(N=C1c2ccccc2/C(=N/S(=O)(=O)c2ccc(Cl)cc2)C2C3C=CC(CC3)C12)c1ccc(Cl)cc1 (centres undefined)")
"> 10 µM"
>>> result("CC1=CC2(C)C3C(=O)N(c4ccc(OC(F)(F)F)cc4)C(=O)C3C1C1C(=O)N(c3ccc(OC(F)(F)F)cc3)C(=O)C12 (centres undefined)")
"> 5.55 µM"
>>> result("COc1ccc(Cc2nc(Oc3ccc(C(C)=O)cc3OC)c3c4c(sc3n2)CCC4)cc1OC")
"> 10 µM"
>>> result("Nc1ncnc(N/N=C/c2ccc(O)cc2O)c1[N+](=O)[O-]")
"> 10 µM"
>>> result("O=C(CC1S/C(=N\\c2ccccn2)NC1=O)Nc1ccc(Cl)cc1 (centres undefined)")
"> 10 µM"

Q: Would you kindly share the measured IC90 for O=C(Nc1cccc(F)c1)C1(c2ccnc(Nc3ccc(C(F)(F)F)cc3)c2)CC1 ?
Ans: > 10 µM

Q: Lookup N=C(N)N/N=C/c1ccc(N(c2ccccc2)c2ccccc2)cc1
Ans: 9.95 µM

Q: Field entry: O=C(Nc1nc2c(s1)CCCC2)c1c[nH]c(=S)n1-c1ccccc1
Ans: > 10 µM

Q: Item: O=C(Nc1cc(C(F)(F)F)cc(C(F)(F)F)c1)c1csc([N+](=O)[O-])c1
Ans: 7.1 µM

----------
tested on: Plasmodium berghei; assay: Luciferase/luciferin-expressing antifolate-resistant parasites were used to infect a culture of HepG2 cells that were pre-incubated with compounds. Infected hepatocytes emit light due to the luciferase reaction. Assay results are presented as the percent inhibition of light emission compared to control. […]; assay type: functional; settings: sporozoite, FFLUC_HILL_SLOPE 86.7, FFLUC_R_SQUARED 0.56, PBLUC_HILL_SLOPE 13.6, PBLUC_R_SQUARED 0.125, read-out: LUCIFERASE INFECTION ASSAY - IC50
endpoint: pIC50
Convention used: pIC50 is expressed as -log10 of the molar concentration.

Q: # get_value(readout='pIC50', item= CCOC(=O)c1c(-c2ccc(F)cc2)csc1NC(=O)CSc1nc2c(c(CC)c1C#N)C(=O)CC(C)(C)C2 )
Ans: 5.06

----------
tested on: Plasmodium berghei; test: Luciferase/luciferin-expressing antifolate-resistant parasites were used to infect a culture of HepG2 cells that were pre-incubated with compounds. Infected hepatocytes emit light due to the luciferase reaction. Assay results are presented as the percent inhibition of light emission compared to control. […]; format: functional; conditions: sporozoite, HEPG2TOX_HILL_SLOPE 7.74, HEPG2TOX_R_SQUARED 0.677, read-out: LUCIFERASE INFECTION ASSAY - IC50
endpoint: IC50

Q: What does the data say about its IC50? Entry: Cc1cc(C(=O)CSc2nnc(C3CC3)o2)c(C)n1-c1ccc2c(c1)CCC2
Ans: > 10 µM

----------
test system: Plasmodium berghei; assay: Luciferase/luciferin-expressing antifolate-resistant parasites were used to infect a culture of HepG2 cells that were pre-incubated with compounds. Infected hepatocytes emit light due to the luciferase reaction. Assay results are presented as the percent inhibition of light emission compared to control. […]; type: functional; conditions: sporozoite, read-out: LUCIFERASE INFECTION ASSAY - IC50
Known IC50 of a selection of compounds

Below, 5 compounds whose answers are already recorded.
>>> result("C=S(=O)(NC(=O)CSc1ccc(Cl)cc1)c1ccc(C)cc1 (stereo unspecified)")
"> 9.32 µM"
>>> result("CCOc1ccc2nc(NC(=O)C3Cc4ccccc4CN3S(=O)(=O)c3ccc(C)cc3)sc2c1 (stereo unspecified)")
"> 10 µM"
>>> result("C/C(=N\\NC(=S)NCC(C)(C)C)c1cc(F)ccc1O")
"> 11.1 µM"
>>> result("COc1ccc(OCc2nnc(SCC(=O)NCC3CCCO3)n2N)cc1 (stereo unspecified)")
"> 10 µM"
>>> result("CCn1c(SCC(=O)NC(=O)NCc2cccs2)nnc1C1CC1")
"> 10 µM"

Q: Please provide the recorded IC50 for O=C(Nc1ccc(Cl)cc1)Nc1nc(-c2cc(Cl)c(Cl)s2)cs1 , tested on Plasmodium berghei.
Ans: 1.13 µM

Q: // repeat for CCCCNC(=S)Nc1cc(C(F)(F)F)ccc1N1CCOCC1 and report
Ans: > 10 µM

Q: Next entry: Cc1cc(NC(=O)C(c2ccc(Cl)cc2)C(C)C)ccc1Br (stereo unspecified)
Ans: > 10 µM

Q: Next up: Cn1nnnc1Sc1ncnc2sc3c(c12)CCCC3
Ans: > 10 µM

Q: Entry O=C(c1cccs1)N1CCc2[nH]nc(-c3ccc(Cl)cc3)c2C1 please
Ans: > 9.6 µM

Q: And then Cc1ccc(-c2noc(CCCN3CCN(C(=O)Cn4cnc5c(C)cccc5c4=O)CC3)n2)cc1 , what is it?
Ans: > 10 µM
